Reported mortality at 2 % strength is given for each of the following compounds.
# Test system: Deroceras reticulatum
# PROTOCOL TEXT: Oral toxicity bait test (pellets in petri-dish), percentage control
# Format: in vivo
# DETAILS: 72 h, 2 % active material in bait, assessments up to 3 days after treatment
Write down the numeric answer in % and omit the unit.

GIVEN SMILES: O=[N+]([O-])C=C1NCCN1Cc1cccc2ccccc12
TEST TARGET: Deroceras reticulatum
mortality at 2 % strength [%]: 25
--
GIVEN SMILES: O=[N+]([O-])C=C1SCCN1Cc1cnc(Cl)c(Cl)c1
TEST TARGET: Deroceras reticulatum
mortality at 2 % strength [%]: 50
--
GIVEN SMILES: Cc1cc(CN2CCNC2=N[N+](=O)[O-])on1
TEST TARGET: Deroceras reticulatum
mortality at 2 % strength [%]: 100

Task: Report mortality at 2 % strength for O=[N+]([O-])C=C1NCCN1Cc1ccc(C(F)(F)F)cc1 please.
Output: 50

----------
# Tested on: Deroceras reticulatum
# PROTOCOL TEXT: Oral toxicity bait test (pellets in petri-dish), percentage control
# Format: in vivo
# DETAILS: 72 h, 2 % active material in bait, assessments up to 3 days after treatment
READOUT: mortality at 2 % strength (%)
Write down the numeric answer in % and omit the unit.

Look over these answered cases.
COMPOUND: O=[N+]([O-])C=C1NCCN1Cc1ccc(F)c(F)c1F [compound 18]
TEST TARGET: Deroceras reticulatum
UNIT ABBREVIATION: %
QUANTITATIVE RESULT: 25
//
COMPOUND: C=C(C)CN1CCCNC1=C[N+](=O)[O-] [compound 23]
TEST TARGET: Deroceras reticulatum
UNIT ABBREVIATION: %
QUANTITATIVE RESULT: 25
//
COMPOUND: O=[N+]([O-])N=C1NCCN1Cc1cc(Cl)no1 [compound 2]
TEST TARGET: Deroceras reticulatum
UNIT ABBREVIATION: %
QUANTITATIVE RESULT: 50

Task: Report mortality at 2 % strength for O=[N+]([O-])N=C1NCCN1Cc1cnc(Cl)c(Cl)c1 [compound 15] please.
Output: 25

Task: Report mortality at 2 % strength for Cc1cc(CN2CCNC2=C[N+](=O)[O-])on1 [compound 3] please.
Output: 100

Task: Report mortality at 2 % strength for O=[N+]([O-])C=C1NCCN1Cc1cc(Br)no1 [compound 5] please.
Output: 50

Task: Report mortality at 2 % strength for Cc1cc(CN2CCCNC2=C[N+](=O)[O-])on1 [compound 24] please.
Output: 25

Task: Report mortality at 2 % strength for O=[N+]([O-])C(CSc1ccc(Cl)cc1)=C1NCCN1Cc1cc(Br)no1 [compound 10] please.
Output: 25

Task: Report mortality at 2 % strength for O=[N+]([O-])C=C1NCCN1Cc1cc(C(F)(F)F)no1 [compound 4] please.
Output: 100

Task: Report mortality at 2 % strength for O=[N+]([O-])C(=C1NCCN1Cc1cc(Cl)no1)[N+](=O)[O-] [compound 9] please.
Output: 50

----------
# Tested on: Deroceras reticulatum
# PROTOCOL TEXT: Oral toxicity bait test (pellets in petri-dish), percentage control
# Type: in vivo
# DETAILS: 72 h, 2 % active material in bait, assessments up to 3 days after treatment
READOUT: mortality at 2 % strength (%)
Write down the numeric answer in % and omit the unit.

Task: Report mortality at 2 % strength for Cc1ccc(CN2CCNC2=C[N+](=O)[O-])cc1[N+](=O)[O-] please.
Output: 25

Task: Report mortality at 2 % strength for O=[N+]([O-])C=C1SCCN1Cc1cc(Cl)no1 please.
Output: 25

Task: Report mortality at 2 % strength for O=[N+]([O-])C(CSCc1ccccc1)=C1NCCN1c1ccc(Cl)nc1 please.
Output: 25

Task: Report mortality at 2 % strength for Cc1cc(CN2CCSC2=C[N+](=O)[O-])on1 please.
Output: 100

Task: Report mortality at 2 % strength for O=[N+]([O-])N=C1NCCN1Cc1cc(Br)no1 please.
Output: 25
